TARGET: hKiSS1R (Homo sapiens, UniProt Q969F8)
Construct: expressed in transfected cells; host or cells: HEK293A
Sequence (Q969F8 whole entry): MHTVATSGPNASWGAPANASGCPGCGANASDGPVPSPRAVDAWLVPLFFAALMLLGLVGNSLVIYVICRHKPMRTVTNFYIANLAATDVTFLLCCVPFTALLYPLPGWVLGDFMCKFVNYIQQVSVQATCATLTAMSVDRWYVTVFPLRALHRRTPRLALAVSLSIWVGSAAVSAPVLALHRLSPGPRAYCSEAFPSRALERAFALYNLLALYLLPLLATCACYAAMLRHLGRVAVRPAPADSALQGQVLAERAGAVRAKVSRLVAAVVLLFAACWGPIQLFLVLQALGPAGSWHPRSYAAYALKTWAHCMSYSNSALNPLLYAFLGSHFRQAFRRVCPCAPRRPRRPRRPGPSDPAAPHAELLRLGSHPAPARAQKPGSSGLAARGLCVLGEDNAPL
ASSAY_TEXT: intracellular Ca2+ mobilization assay (Fluo4 NW) in KiSS1R-transfected HEK293A cells
Type: cell-based
CONDITION_DESCRIPTION: KiSS1R-transfected HEK293 cell line, Fluo4 NW, AUC fitted; mean ± SEM, N = 3; SEM; read-out: EC50, calcium mobilization
No end group written: not given here.
VALUE_TYPE: EC50

• YNWNSFGLRY-NH2 [Kp10] = 2.6 nM

The measurements presented in this section are drawn from paper PMC4887910.
